Target: T1, ScPif1p DM (Saccharomyces cerevisiae, UniProt P07271 237-780, E242A;K273A;R281A)
T1 sequence: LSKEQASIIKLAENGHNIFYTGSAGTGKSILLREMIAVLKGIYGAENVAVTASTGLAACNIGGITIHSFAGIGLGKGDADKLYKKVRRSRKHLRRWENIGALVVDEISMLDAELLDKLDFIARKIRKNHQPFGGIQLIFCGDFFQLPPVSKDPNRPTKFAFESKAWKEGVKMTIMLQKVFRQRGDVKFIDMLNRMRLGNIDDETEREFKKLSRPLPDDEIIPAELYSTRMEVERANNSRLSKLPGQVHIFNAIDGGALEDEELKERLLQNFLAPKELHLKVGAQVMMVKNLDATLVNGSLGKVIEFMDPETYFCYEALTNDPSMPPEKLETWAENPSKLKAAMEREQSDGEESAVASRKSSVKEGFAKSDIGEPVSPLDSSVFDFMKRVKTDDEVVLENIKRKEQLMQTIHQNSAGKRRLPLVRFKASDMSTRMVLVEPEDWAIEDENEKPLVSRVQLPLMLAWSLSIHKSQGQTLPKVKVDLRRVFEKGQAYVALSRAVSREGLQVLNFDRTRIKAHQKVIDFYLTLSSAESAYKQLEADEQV
Experiment: fluorescence anisotropy
Provide the recorded Kd for the entries that follow.
Note: state the figure and append the unit.

Can you share its Kd? I mean this binder: dsDNA16bp (dsDNA) DNA 1: CTCTGCTCGACGGATT DNA 2: AATCCGTCGAGCAGAG
95.5 nM

What does the record list as Kd for GTGTGTGTGGTG (ssDNA) [GR12] ?
13.4 nM

# get_value(readout='Kd', item= AGGGTGGGTGGGTGGGT (structured_DNA) [F-G417] )
23.8 nM
